Data credit: patent US12404304B1

Measured Average Cell Viability after 24 Hours (% DMSO) values are reported for all entries that follow.
- System: viable cells in culture
- Assay Protocol: Cell viability assay (CellTiter-Glo Luminescent Cell Viability Assay, ATP quantitation, percent of vehicle control)
Output spec: scalar in % DMSO, unitless text.

compound="O=C(NCCCn1ccnc1)c1cc(-c2ccccc2)on1 [compound 1522]" observed_result=80.72
compound="O=C(CCc1ccccc1)NC(c1cccc([N+](=O)[O-])c1)c1c(O)ccc2ccccc12 (stereo not drawn) [compound 1458]" observed_result=62.79
compound="COC(=O)c1ccc(Cl)c2c1C1C=CCC1C(c1cccc(F)c1)N2 (stereo not drawn) [compound 1459]" observed_result=72.75
compound="CC(C)(C)c1cc(-c2nc3ccccc3[nH]2)c(O)c(-c2nc3ccccc3[nH]2)c1 [compound 1555]" observed_result=90.08
compound="O=C(OCc1cc(=O)n2nc(C3CC3)sc2n1)c1ccc(NC(=O)c2ccco2)cc1 [compound 1452]" observed_result=81.09
compound="O=C(NCC1COc2ccccc2O1)c1ccc(NC(=O)C2COc3ccccc3O2)cc1 (stereo not drawn) [compound 1430]" observed_result=88.00
compound="Cc1nc(-n2nc(C)c(CC(=O)N3CCCCC3)c2O)sc1C [compound 1126]" observed_result=95.13
compound="O=C(c1cnn2c(C(F)(F)F)cc(-c3ccco3)nc12)N1CCCCC1 [compound 1471]" observed_result=90.01
compound="NC(=O)C1CCN(c2nc3c(S(=O)(=O)c4cccc(Cl)c4)nnn3c3ccsc23)CC1 [compound 1261]" observed_result=85.18
compound="O=C1CC(N2CCN(Cc3ccc(Cl)cc3)CC2)C(=O)N1c1ccccc1 (stereo not drawn) [compound 1313]" observed_result=112.79

Form field Average Cell Viability after 24 Hours (% DMSO), entry CCCCC(=O)NC(c1ccco1)c1cc([N+](=O)[O-])c2cccnc2c1O (stereo not drawn) [compound 1055] : 57.43

Average Cell Viability after 24 Hours (% DMSO) measured on Oc1c(I)cc(I)c2cccnc12 [compound 1018] = 56.90

response.value for CCC(=O)NC(c1ccc(N(C)C)cc1)c1ccc2cccnc2c1O (stereo not drawn) [compound 1001] (field: Average Cell Viability after 24 Hours (% DMSO)) = 44.55

Consider Cc1ccc(-c2noc(CN3CCOCC3)n2)cc1 [compound 1333] . Its measured Average Cell Viability after 24 Hours (% DMSO) is 96.79

Lab book: Average Cell Viability after 24 Hours (% DMSO) of Cc1ccc(C(NC(=O)C(C)C)c2ccc3cccnc3c2O)cc1 (stereo not drawn) [compound 1088] noted as 55.87

The compound COc1ccc(S(=O)(=O)N(CC(=O)NC2CC3CCC2C3)c2ccccc2)cc1OC (stereo not drawn) [compound 1421] showed Average Cell Viability after 24 Hours (% DMSO) equal to 104.42

Briefly, Average Cell Viability after 24 Hours (% DMSO) measured for O=C1c2oc3ccccc3c(=O)c2C(c2cccc(OCc3ccccc3)c2)N1c1nccs1 (stereo not drawn) [compound 1324] : 57.19

According to the records, this compound Cc1ccc(N2CC(C(=O)N3CCCC3)CC2=O)c(C)c1 (stereo not drawn) [compound 1365] displays Average Cell Viability after 24 Hours (% DMSO) of 99.89

---

This section presents molecules with their documented Average Cell Viability after 24 Hours (% DMSO) values.
- Test system: viable cells in culture
- Assay Protocol: Cell viability assay (CellTiter-Glo Luminescent Cell Viability Assay, ATP quantitation, percent of vehicle control)
# output: bare number, implied unit % DMSO

molecule="CCCCc1c(C)nn(-c2nc3ccccc3[nH]2)c1O [compound 1111]" units_label="% DMSO" observed_result=47.04

Entry CC(=O)NC(c1ccc(Br)cc1)c1ccc2cccnc2c1O (stereo not shown) [compound 1022] — recorded Average Cell Viability after 24 Hours (% DMSO) = 63.83

get_value(item= Cc1ccc(S(=O)(=O)Nc2cc(S(=O)(=O)c3ccc(C)cc3)c(O)c3ncccc23)cc1 [compound 1093] , readout=Average Cell Viability after 24 Hours (% DMSO)) returns 66.50

Summary for this molecule, CCC(=O)NC(c1ccccc1OC)c1cc(Cl)c2cccnc2c1O (stereo not shown) [compound 1043] : Average Cell Viability after 24 Hours (% DMSO) is 47.47

Short answer for CCCCNC(=O)CCc1c(C)nn(-c2nc(C)c(C)s2)c1O [compound 1135] : Average Cell Viability after 24 Hours (% DMSO) was 88.69

Entry Oc1cc(-c2ccccc2)nn1-c1nc2ccccc2[nH]1 [compound 1108] — recorded Average Cell Viability after 24 Hours (% DMSO) = 94.50

Entry CCn1ncc([N+](=O)[O-])c1C(=O)Nc1sc2c(c1C#N)CCCCCC2 [compound 1325] — recorded Average Cell Viability after 24 Hours (% DMSO) = 94.20

---

- System: viable cells in culture
- Assay Protocol: Cell viability assay (CellTiter-Glo Luminescent Cell Viability Assay, ATP quantitation, percent of vehicle control)
Label key: Met means Average Cell Viability after 24 Hours (% DMSO) under 60 % DMSO; Not met means Average Cell Viability after 24 Hours (% DMSO) of 60 % DMSO or more.

These solved cases illustrate the format of a correct answer.
compound=Cc1nn2c(=O)c(Cc3ccccc3)c(C)[nH]c2c1-c1ccc(Cl)cc1 group="Not met"
compound="O=C(CCc1ccccc1)NC(c1ccc([N+](=O)[O-])cc1)c1c(O)ccc2ccccc12 (stereo not shown)" group="Not met"
compound=CC1CCN(C(=O)CN(Cc2ccc(F)cc2)S(C)(=O)=O)CC1 group="Not met"
compound="CCCC(=O)NC(c1ccco1)c1cc(Cl)c2cccnc2c1O (stereo not shown)" group=Met

Turning now to a further compound:
Identify whether the compound CC(C)CNC(=O)c1cc(-c2cccs2)on1 records Average Cell Viability after 24 Hours (% DMSO) below 60 % DMSO. Not met

---

- Tested on: viable cells in culture
- Assay Protocol: Cell viability assay (CellTiter-Glo Luminescent Cell Viability Assay, ATP quantitation, percent of vehicle control)
Measured Average Cell Viability after 24 Hours (% DMSO) of individual entries
Provide only the numeric value, understood in % DMSO.

compound=CCOC(=O)CSc1nc(C)c(CC)c(C)c1C(N)=O observed_result=106.19
compound=Cc1nn(-c2cc(N3CCN(S(=O)(=O)c4ccc(Cl)cc4)CC3)ccc2[N+](=O)[O-])c(=O)c2ccccc12 observed_result=109.75

// CCOCc1cc(CN2CCCCC2)c(O)c2ncccc12 : Average Cell Viability after 24 Hours (% DMSO) value = 64.22

Data point: O=C(NCCCn1ccnc1)c1cc(-c2ccc(F)cc2)on1 ; Average Cell Viability after 24 Hours (% DMSO) = 97.79

Looking up COc1ccc(COC(=O)C2=C(C)NC3=C(C(=O)CC(c4ccco4)C3)C2c2cccs2)cc1 (stereo not drawn) , I found its Average Cell Viability after 24 Hours (% DMSO) recorded as 99.98

Just so you know, measured Average Cell Viability after 24 Hours (% DMSO) for COc1cc(CCNC(=O)c2cc(-c3cccs3)on2)cc(OC)c1 came out at 99.31

---

- Test system: viable cells in culture
- Assay Protocol: Cell viability assay (CellTiter-Glo Luminescent Cell Viability Assay, ATP quantitation, percent of vehicle control)
Property Label: Average Cell Viability after 24 Hours (% DMSO)
Express your answer in % DMSO, writing the number without its unit.

Completed entries (count: 5):
compound=Cc1cc(C)c(S(=O)(=O)Nc2ccccc2C(=O)NCCc2ccccc2)c(C)c1 observed_result=73.35
compound=c1ccc(-c2nc3cc(Oc4ccc5[nH]c(-c6ccccn6)nc5c4)ccc3[nH]2)nc1 observed_result=86.51
compound=Cc1nn2c(=O)cc(CSc3nnnn3-c3ccccc3)[nH]c2c1-c1ccc(Cl)cc1 observed_result=70.88
compound=O=C(O)c1c(-c2ccccc2)c2oc3ccccc3c2[nH]c1=O observed_result=89.10
compound=C=C(C)Cn1c(CCO)nc2ccccc21 observed_result=106.63

get_value(item= Cc1csc(-n2nc(C)c(CCC(=O)Nc3ccc(Cl)cc3)c2O)n1 , readout=Average Cell Viability after 24 Hours (% DMSO)) returns 87.25

// Average Cell Viability after 24 Hours (% DMSO) value for Cc1ccc(N)cc1S(=O)(=O)N1CCCCC1 : 110.20

COc1ccc(C(=O)NC(c2ccco2)c2cc(Cl)c3cccnc3c2O)cc1 (centres unmarked) has a reported Average Cell Viability after 24 Hours (% DMSO) of 60.73

The compound listed as Cc1ccc(-c2cc(=O)n3nc(C)c(-c4ccccc4)c3[nH]2)cc1 has a reported Average Cell Viability after 24 Hours (% DMSO) of 77.04

---

- System: viable cells in culture
- Assay Protocol: Cell viability assay (CellTiter-Glo Luminescent Cell Viability Assay, ATP quantitation, percent of vehicle control)
// reported Average Cell Viability after 24 Hours (% DMSO) per item
# value in % DMSO; strip the unit string

Solved entries (count: 5):
compound=O=C(CSc1ccc(-c2ccccn2)nn1)Nc1ccc2c(c1)OCO2 units_label="% DMSO" observed_result=76.32
compound=COc1cc(NC(=O)CSc2ccc(-c3ccccn3)nn2)cc(OC)c1 units_label="% DMSO" observed_result=60.54
compound="CC(C)C(=O)NC(c1ccc(C(C)C)cc1)c1ccc2ccccc2c1O (stereo not drawn)" units_label="% DMSO" observed_result=67.09
compound=Cn1c(SCC(=O)N/N=C/c2sc3ccccc3c2O)nc2ccccc21 units_label="% DMSO" observed_result=69.51
compound=O=c1c(-c2ccccc2)c[nH]c2c(-c3ccccc3)cnn12 units_label="% DMSO" observed_result=62.93

The reported Average Cell Viability after 24 Hours (% DMSO) of the compound Brc1cccc(OCCCN2CCCCC2)c1 was 104.34

According to the records, this compound CCCCc1c(C)nn(-c2nc(C)c(C(=O)OCC)s2)c1O displays Average Cell Viability after 24 Hours (% DMSO) of 68.77

For this compound ( Cc1cc(C(=O)N/N=C/c2ccccc2O)c(C)o1 ), measured Average Cell Viability after 24 Hours (% DMSO) is 68.67

Measured Average Cell Viability after 24 Hours (% DMSO), Cc1ccc(O)c(/C=N/NC(=O)c2ccc(Br)cc2)c1 : 64.51

Per the records, this compound ( O=C(O)C1C2CCC(O2)C1C(=O)NCc1ccco1 (stereo not drawn) ) has Average Cell Viability after 24 Hours (% DMSO) equal to 102.27

The recorded Average Cell Viability after 24 Hours (% DMSO) for COc1cc(NS(=O)(=O)c2cc(Cl)ccc2Cl)c2ncccc2c1 is 52.03

# Average Cell Viability after 24 Hours (% DMSO) of COc1ccc(-c2cc(=O)n3nc(C)c(-c4ccc(F)cc4)c3[nH]2)cc1 = 69.15

Lab book: Average Cell Viability after 24 Hours (% DMSO) of CCCNC(=O)c1cc(-c2ccco2)on1 noted as 96.27

Field Average Cell Viability after 24 Hours (% DMSO) (entry O=[N+]([O-])c1ccc(S(=O)(=O)Nc2cc(Cl)ccc2O)cc1 ) reads 78.86

Average Cell Viability after 24 Hours (% DMSO) reported for this compound O=C(N/N=C/c1cc(Br)cc(I)c1O)c1ccccn1 : 75.52

Average Cell Viability after 24 Hours (% DMSO) for Cc1ccc2ccc(C(Nc3ccccn3)c3ccccc3Br)c(O)c2n1 (stereo not drawn) is 76.49

For reference, reported Average Cell Viability after 24 Hours (% DMSO) for COCc1cc(CN2CCCC2)c(O)c2ncccc12 stands at 78.08

What the record says about CCn1c(COc2ccc(C(C)C)cc2)nnc1SCC(=O)Nc1nccs1 : Average Cell Viability after 24 Hours (% DMSO) is 110.82

Consider CCCCC(=O)NC(c1cccs1)c1cc([N+](=O)[O-])c2cccnc2c1O (stereo not drawn) . Its measured Average Cell Viability after 24 Hours (% DMSO) is 85.12
